Recorded values, source patent US9217014B2.

Assay: Pharmacokinetics in beagle dogs, intravenous
Format: in vivo
Conditions: beagle, dog, in vivo, iv, 1.4 mg/kg
Experimental: The test articles were administered to beagle dogs weighing approximately 6-10 kg. Each test article was dosed at 1.4 mg/kg in aqueous saline (with or without 0.5% Tween) over course of 1-10 minutes. […] Plasma (100 μL) was precipitated with 400 μL of 0.1% formic acid in acetonitrile containing the internal standard (100 ng/mL pneumocandin). […] Samples were then analyzed by LCMSMS. […]
READOUT_NAME: half-life

Prompt: GET /values?readout=half-life&item= CCCCCOc1ccc(-c2ccc(-c3ccc(C(=O)N[C@H]4C[C@@H](O)C(OCCOCCN)NC(=O)C5[C@@H](O)[C@@H](C)CN5C(=O)C([C@@H](C)O)NC(=O)C([C@H](O)[C@@H](O)c5ccc(O)cc5)NC(=O)C5C[C@@H](O)CN5C(=O)C([C@@H](C)O)NC4=O)cc3)cc2)cc1 (stereo partly shown) [compound 5]
Response: 33.7 h

###

test: Solubility in aqueous buffers of varying pH; type: physicochemical; details: saline or isotonic; 0.9% saline; ambient temperature; compound 1 as acetate salt
READOUT_NAME: solubility (µg/mL)
// note: answer is a bare numeric in µg/mL

Prompt: GET /values?readout=solubility&item= CCCCCOc1ccc(-c2ccc(-c3ccc(C(=O)N[C@H]4C[C@@H](O)C(OCC[N+](C)(C)C)NC(=O)C5[C@@H](O)[C@@H](C)CN5C(=O)C([C@@H](C)O)NC(=O)C([C@H](O)[C@@H](O)c5ccc(O)cc5)NC(=O)C5C[C@@H](O)CN5C(=O)C([C@@H](C)O)NC4=O)cc3)cc2)cc1 (some centres unmarked)
Response: 4600

###

test system: C. albicans R303; experiment: mouse candidiasis infection model, IP administration, kidney fungal burden; assay type: in vivo; details: Third run; IP 0.5 mg/kg; kidneys 24 h after infection
Cut-off 2 log10 CFU/kidneys on Mean log10 CFU/kidneys (±SEM), inclusive. At or above means condition met; below means condition not met.

Before answering, review these 3 worked examples.
CCC(C)CC(C)CCCCCCCCC(=O)N[C@H]1C[C@@H](O)C(NCCNCCO)NC(=O)C2[C@@H](O)CCN2C(=O)C([C@H](O)CCN)NC(=O)C([C@H](O)[C@@H](O)c2ccc(O)cc2)NC(=O)C2C[C@@H](O)CC2C(=O)C([C@@H](C)O)NC1=O (some centres unmarked) [compound 21] : condition not met
CC[C@H](C)C[C@H](C)CCCCCCCCC(=O)N[C@H]1C[C@@H](O)[C@@H](NCCN)NC(=O)[C@@H]2[C@@H](O)CCN2C(=O)[C@H]([C@H](O)CCN)NC(=O)[C@H]([C@H](O)[C@@H](O)c2ccc(O)cc2)NC(=O)[C@@H]2C[C@@H](O)CN2C(=O)[C@H]([C@@H](C)O)NC1=O [caspofungin, reference compound] : condition not met
CCC(C)CC(C)CCCCCCCCC(=O)N[C@H]1C[C@@H](O)C(NCCOCCOCCN)NC(=O)C2[C@@H](O)CCN2C(=O)C([C@H](O)CCN)NC(=O)C([C@H](O)[C@@H](O)c2ccc(O)cc2)NC(=O)C2C[C@@H](O)CC2C(=O)C([C@@H](C)O)NC1=O (some centres unmarked) [compound 19] : condition met

Prompt: Is reported Mean log10 CFU/kidneys (±SEM) greater than or equal to 2 log10 CFU/kidneys here: CCC(C)CC(C)CCCCCCCCC(=O)N[C@H]1C[C@@H](O)C(NCCNCCN)NC(=O)C2[C@@H](O)CCN2C(=O)C([C@H](O)CCN)NC(=O)C([C@H](O)[C@@H](O)c2ccc(O)cc2)NC(=O)C2C[C@@H](O)CC2C(=O)C([C@@H](C)O)NC1=O (some centres unmarked) [compound 22]
Response: condition not met

###

# log reduction at 1.5 mg/kg per record follows
Tested on: C. albicans R303
Assay: mouse candidiasis infection model, IP administration, kidney fungal burden
Assay type: in vivo
Conditions: Candida albicans, R303, ip, 24 h, Fourth run; IP 1.5 mg/kg; read-out: Difference from 24-h control
Method: The objective of these studies was to evaluate the efficacy of test compounds in the mouse candidiasis infection model. Amounts of test articles are uncorrected. […] In a typical procedure, the kidneys were collected from four mice in control group 1 (untreated) at 2 hr after infection, and from another four mice in control group 2 (untreated) at 24 hr after infection. […] The CFU/kidneys were determined from colony counts. […]
Respond numerically, and do not add a unit to the figure.

CCCCCOc1ccc(-c2ccc(-c3ccc(C(=O)N[C@H]4C[C@@H](O)C(NCCN)NC(=O)C5[C@@H](O)[C@@H](C)CN5C(=O)C([C@@H](C)O)NC(=O)C([C@H](O)[C@@H](O)c5ccc(O)cc5)NC(=O)C5C[C@@H](O)CC5C(=O)C([C@@H](C)O)NC4=O)cc3)cc2)cc1 (some centres unmarked) : 3.81

Could you now consider this next compound?
Prompt: GET /values?readout=log reduction at 1.5 mg/kg&system=C. albicans R303&item= CCCCCOc1ccc(-c2ccc(-c3ccc(C(=O)N[C@H]4C[C@@H](O)C(NCCOCCOCCOCCOC)NC(=O)C5[C@@H](O)[C@@H](C)CN5C(=O)C([C@@H](C)O)NC(=O)C([C@H](O)[C@@H](O)c5ccc(O)cc5)NC(=O)C5C[C@@H](O)CN5C(=O)C([C@@H](C)O)NC4=O)cc3)cc2)cc1 (some centres unmarked)
Response: 0.01

###

tested on: C. albicans R303; test: mouse candidiasis infection model, IP administration, kidney fungal burden; type: in vivo; conditions: Second run; IP 4.5 mg/kg; kidneys 24 h after infection
*1 amine or outer side, *2 acyl side, *3 side chain or, on linkers, in order; H or OH if unused. Where a SMILES comes first, the peptide text is derived from it. Bridges are numbered along the chain shown (N, C = ends). [ ]: non-standard residue; d: D form. The star is where a group is joined. pTerphenylCO(4''-OnC5H11) = CCCCCOc1ccc(-c2ccc(-c3ccc(C(=O)*)cc3)cc2)cc1; Orn(4R-OH,5R-OH) = O=C([C@H](C[C@@H](O)[C@@H](O)N[*:3])N[*:1])[*:2]; hTyr(3S-OH,4S-OH) = N[C@H](C(=O)O)[C@H](O)[C@@H](O)c1ccc(O)cc1; Pro(3S-OH,4S-Me) = C[C@H]1CN[C@H](C(=O)O)[C@H]1O; Hyp = O=C(O)[C@@H]1C[C@@H](O)CN1
READOUT_NAME: Mean log10 CFU/kidneys (±SEM) (log10 CFU/kidneys)
// note: answer is a bare numeric in log10 CFU/kidneys

Examples from the recorded data:
CCCCCOc1ccc(-c2ccc(-c3ccc(C(=O)N[C@H]4C[C@@H](O)[C@@H](O)NC(=O)[C@@H]5[C@@H](O)[C@@H](C)CN5C(=O)[C@H]([C@@H](C)O)NC(=O)[C@H]([C@H](O)[C@@H](O)c5ccc(O)cc5)NC(=O)[C@@H]5C[C@@H](O)CN5C(=O)[C@H]([C@@H](C)O)NC4=O)cc3)cc2)cc1 [anidulafungin, reference compound] ({pTerphenylCO(4''-OnC5H11)}-[Orn(4R-OH,5R-OH)]T[Hyp][hTyr(3S-OH,4S-OH)]T[Pro(3S-OH,4S-Me)]; lactam 1-C) : 1.10
CCCCCOc1ccc(-c2ccc(-c3ccc(C(=O)N[C@H]4C[C@@H](O)C(NCCN)NC(=O)C5[C@@H](O)[C@@H](C)CN5C(=O)C([C@@H](C)O)NC(=O)C([C@H](O)[C@@H](O)c5ccc(O)cc5)NC(=O)C5C[C@@H](O)CC5C(=O)C([C@@H](C)O)NC4=O)cc3)cc2)cc1 (stereo partly drawn) [compound 15] : 0.73

Could you now consider this next compound?
Prompt: GET /values?readout=Mean log10 CFU/kidneys (±SEM)&item= CCCCCOc1ccc(-c2ccc(-c3ccc(C(=O)N[C@H]4C[C@@H](O)C(OCCOCCN)NC(=O)C5[C@@H](O)[C@@H](C)CN5C(=O)C([C@@H](C)O)NC(=O)C([C@H](O)[C@@H](O)c5ccc(O)cc5)NC(=O)C5C[C@@H](O)CN5C(=O)C([C@@H](C)O)NC4=O)cc3)cc2)cc1 (stereo partly drawn) [compound 5]
Response: 0.00

###

experiment: Pharmacokinetics in beagle dogs, intravenous; assay type: in vivo; conditions: dog, plasma; 1.4 mg/kg intravenous slow bolus; mean ± SEM; n = 4 beagle dogs; read-out: Vz
READOUT_NAME: Vd (L/kg)
// note: answer is a bare numeric in L/kg

Prompt: GET /values?readout=Vd&item= CCCCCOc1ccc(-c2ccc(-c3ccc(C(=O)N[C@H]4C[C@@H](O)C(NCC[N+](C)(C)C)NC(=O)C5[C@@H](O)[C@@H](C)CN5C(=O)C([C@@H](C)O)NC(=O)C([C@H](O)[C@@H](O)c5ccc(O)cc5)NC(=O)C5C[C@@H](O)CC5C(=O)C([C@@H](C)O)NC4=O)cc3)cc2)cc1 (some centres unmarked)
Response: 0.874

Prompt: GET /values?readout=Vd&item= CCCCCOc1ccc(-c2ccc(-c3ccc(C(=O)N[C@H]4C[C@@H](O)C(NCCNCCO)NC(=O)C5[C@@H](O)[C@@H](C)CN5C(=O)C([C@@H](C)O)NC(=O)C([C@H](O)[C@@H](O)c5ccc(O)cc5)NC(=O)C5C[C@@H](O)CC5C(=O)C([C@@H](C)O)NC4=O)cc3)cc2)cc1 (some centres unmarked)
Response: 0.687
